Recorded values, source paper PMC7277757.

EXPERIMENTAL_TARGET: T1, alpha-fetoprotein (AFP) (Homo sapiens, UniProt P02771 19-609)
T1 sequence: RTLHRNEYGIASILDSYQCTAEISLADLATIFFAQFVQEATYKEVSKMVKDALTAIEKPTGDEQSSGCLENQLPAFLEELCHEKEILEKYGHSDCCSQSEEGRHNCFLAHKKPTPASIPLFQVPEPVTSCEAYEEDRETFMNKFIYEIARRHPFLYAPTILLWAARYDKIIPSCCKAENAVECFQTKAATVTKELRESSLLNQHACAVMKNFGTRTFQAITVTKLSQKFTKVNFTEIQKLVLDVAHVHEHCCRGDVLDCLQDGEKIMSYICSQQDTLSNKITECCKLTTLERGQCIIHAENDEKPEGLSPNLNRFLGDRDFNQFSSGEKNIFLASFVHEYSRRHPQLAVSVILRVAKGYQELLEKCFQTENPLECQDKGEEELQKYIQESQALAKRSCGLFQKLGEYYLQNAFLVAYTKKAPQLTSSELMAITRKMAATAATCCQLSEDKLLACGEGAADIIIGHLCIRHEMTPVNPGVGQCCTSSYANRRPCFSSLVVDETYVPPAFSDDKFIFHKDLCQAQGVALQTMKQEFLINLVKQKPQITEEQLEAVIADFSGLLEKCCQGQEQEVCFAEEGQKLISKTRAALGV
ASSAY_INFO: magnetic bead binding assay, antiF-POD, chronoamperometry; no amplification; Hill n = 1.6 ± 0.4; 1x PBS, 25 °C, 30 min, 1300 rpm; 60 µg AFP-modified magnetic beads in 250 µL (effective AFP about 34 nM); washes 1x PBS 0.01% Tween 20; pH not stated
MEASUREMENT_SETUP: protein: native; label: 5' FITC
MEASUREMENT_TYPE: pKd
Reminder that pKd is minus the log10 of a molar concentration.

Bench note: what pKd did AFP-L-FITC (ssDNA) DNA: GGCAGGAAGACAAACAAGCTTGGCGGCGGGAAGGTGTTTAAATTCCCGGGTCTGCGTGGTCTGTGGTGCTGT show?
6.28
